These measurements were taken from paper PMC9551036.

molecular target: SMARCA2 (Homo sapiens); experiment: SMARCA2 capillary electrophoresis protein assay in RKO cells; assay type: cell-based; set-up: endogenous in cells; host or cells: RKO, NCI-H1568, A549, HCT116, LU99, HCC-364, HCT-15, HCC4006, SK-N-AS; details: RKO (4 h); mean ± SD
Sequence (P51531 whole entry): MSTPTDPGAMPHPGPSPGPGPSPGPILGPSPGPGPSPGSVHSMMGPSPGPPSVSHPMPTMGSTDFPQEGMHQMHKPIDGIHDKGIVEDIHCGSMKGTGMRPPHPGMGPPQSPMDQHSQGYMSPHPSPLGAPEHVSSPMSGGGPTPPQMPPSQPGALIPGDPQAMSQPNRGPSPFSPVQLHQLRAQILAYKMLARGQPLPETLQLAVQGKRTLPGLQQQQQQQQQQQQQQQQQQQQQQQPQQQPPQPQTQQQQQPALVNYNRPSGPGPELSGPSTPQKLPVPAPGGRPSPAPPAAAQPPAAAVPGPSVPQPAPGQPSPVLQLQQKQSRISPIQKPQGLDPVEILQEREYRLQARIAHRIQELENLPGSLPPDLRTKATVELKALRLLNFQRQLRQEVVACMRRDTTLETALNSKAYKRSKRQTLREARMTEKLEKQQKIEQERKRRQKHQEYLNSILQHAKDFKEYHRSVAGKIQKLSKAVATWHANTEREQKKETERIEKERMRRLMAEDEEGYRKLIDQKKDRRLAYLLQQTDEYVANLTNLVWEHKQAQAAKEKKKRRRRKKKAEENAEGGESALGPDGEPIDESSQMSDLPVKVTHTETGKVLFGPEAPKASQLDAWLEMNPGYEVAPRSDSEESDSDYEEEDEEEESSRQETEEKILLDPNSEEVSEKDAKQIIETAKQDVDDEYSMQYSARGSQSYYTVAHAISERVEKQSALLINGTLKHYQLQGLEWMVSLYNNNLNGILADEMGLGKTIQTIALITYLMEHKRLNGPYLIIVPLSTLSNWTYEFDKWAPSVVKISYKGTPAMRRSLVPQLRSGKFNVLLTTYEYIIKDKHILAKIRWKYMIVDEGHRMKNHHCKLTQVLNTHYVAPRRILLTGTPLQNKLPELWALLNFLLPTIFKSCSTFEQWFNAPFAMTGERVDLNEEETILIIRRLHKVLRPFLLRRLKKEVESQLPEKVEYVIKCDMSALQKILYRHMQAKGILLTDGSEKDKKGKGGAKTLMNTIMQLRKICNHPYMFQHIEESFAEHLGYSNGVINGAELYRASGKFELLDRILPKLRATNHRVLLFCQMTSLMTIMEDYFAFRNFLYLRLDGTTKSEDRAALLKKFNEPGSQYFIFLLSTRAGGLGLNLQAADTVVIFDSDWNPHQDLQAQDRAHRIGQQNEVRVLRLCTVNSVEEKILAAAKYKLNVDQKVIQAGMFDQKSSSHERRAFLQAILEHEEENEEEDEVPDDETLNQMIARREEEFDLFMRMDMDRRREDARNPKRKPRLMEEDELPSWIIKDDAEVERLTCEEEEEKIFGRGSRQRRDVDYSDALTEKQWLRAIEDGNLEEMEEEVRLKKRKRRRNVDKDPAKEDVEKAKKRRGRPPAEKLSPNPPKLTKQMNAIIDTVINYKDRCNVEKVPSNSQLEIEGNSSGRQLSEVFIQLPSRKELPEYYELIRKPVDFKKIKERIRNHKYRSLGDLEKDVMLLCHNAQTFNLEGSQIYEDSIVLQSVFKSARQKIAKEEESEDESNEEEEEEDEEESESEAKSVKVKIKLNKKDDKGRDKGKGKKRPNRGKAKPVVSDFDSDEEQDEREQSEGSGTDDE
measurement.name: DC50 (nM)
Express it in nM; write the number only.

# value of DC50, SMARCA2 (Homo sapiens), item "Cc1ncsc1-c1ccc([C@H](COCCN2CCC(c3ccc4c(c3)n(C3CCCC3)c3nc(=O)c5c(Br)cccc5n43)CC2)NC(=O)[C@@H]2C[C@@H](O)CN2C(=O)[C@@H](NC(=O)C2(N(C)C)CC2)C(C)(C)C)cc1" = 12

###

experiment: Plasma protein binding; assay type: in vitro ADME; settings: human, 10% plasma (plasma dilution in PBS), 10% human; read-out: PPB fu 10% Human
measurement.name: fraction unbound at 5 h, 3 µmol/L

Briefly, fraction unbound at 5 h, 3 µmol/L measured for Cc1ncsc1-c1ccc(C(CCC(C)CCN2CCC(c3ccc4c(c3)n(C3CCCC3)c3nc(=O)c5c(Br)cccc5n43)CC2)NC(=O)C2CC(O)CN2C(=O)C(NC(=O)C2(F)CC2)C(C)(C)C)cc1 (centres unmarked) : < 0.00045

Briefly, fraction unbound at 5 h, 3 µmol/L measured for "Cc1ncsc1-c1ccc([C@H](CCCCCN2CCC(c3ccc4c(c3)n(C3CCCC3)c3nc(=O)c5c(Br)cccc5n43)CC2)NC(=O)[C@@H]2C[C@@H](O)CN2C(=O)[C@@H](NC(=O)C2(F)CC2)C(C)(C)C)cc1" : < 0.00049

###

assay: Cell viability assay (CellTiter Glo) in a panel of cell lines; assay type: cell-based, human; details: human, LXFL 529L cells, LXFL_529L; log10 conc -6.50031 mol/l;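 also: percent of DMSO-treated control cells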
measurement.name: viability at 0.316 µM
Dear colleague, please send the value followed by its unit.

Briefly, viability at 0.316 µM measured for Cc1ncsc1-c1ccc(C(CCC(C)CCN2CCC(c3ccc4c(c3)n(C3CCCC3)c3nc(=O)c5c(Br)cccc5n43)CC2)NC(=O)C2CC(O)CN2C(=O)C(NC(=O)C2(F)CC2)C(C)(C)C)cc1 (stereo not shown) : 6.27%

###

assay: Pharmacokinetic analyses in mouse; type: in vivo; settings: NMRI, mouse, plasma, po, 30 mg/kg, NMRI mice, Xenograft study
measurement.name: MRT (h)
Express it in h; write the number only.

Briefly, MRT measured for "Cc1ncsc1-c1ccc([C@H](CCCCCN2CCC(c3ccc4c(c3)n(C3CCCC3)c3nc(=O)c5c(Br)cccc5n43)CC2)NC(=O)[C@@H]2C[C@@H](O)CN2C(=O)[C@@H](NC(=O)C2(F)CC2)C(C)(C)C)cc1" : 5.6

###

experiment: Cell viability assay (CellTiter Glo) in a panel of cell lines; type: cell-based, human; conditions: human, LXFL 529L cells, LXFL_529L; log10 conc -6 mol/l;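 also: percent of DMSO-treated control cells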
measurement.name: viability at 1 µM (%)
Express it in %; write the number only.

Briefly, viability at 1 µM measured for Cc1ncsc1-c1ccc(C(CCC(C)CCN2CCC(c3ccc4c(c3)n(C3CCCC3)c3nc(=O)c5c(Br)cccc5n43)CC2)NC(=O)C2CC(O)CN2C(=O)C(NC(=O)C2(F)CC2)C(C)(C)C)cc1 (stereo not shown) : 4.39
